# Measured target: T1, Growth and Differentiation Factor-11 (GDF11) (UniProt O95390 299-407)
# T1 construct: also called BMP11
# T1 sequence (looked up): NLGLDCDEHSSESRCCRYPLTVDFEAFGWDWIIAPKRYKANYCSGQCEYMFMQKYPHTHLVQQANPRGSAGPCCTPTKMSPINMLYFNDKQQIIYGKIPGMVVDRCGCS
# Procedure text: BiaCore; receptor-Fc captured by anti-hFc antibody, ligand injected

Binder	koff [s⁻¹]
ActRIIB(R64K 20-134)-hFc (Fc fusion, not shown: linker (if any) and human Fc (hFc)) GRGEAETRECIYYNANWELERTNQSGLERCEGEQDKRLHCYASWKNSSGTIELVKKGCWLDDFNCYDRQECVATEENPQVYFCCCEGNFCNERFTHLPEAGGPEVTYEPPPTAPT	2.41e-05
ActRIIB(L79E 20-134)-hFc (Fc fusion) GRGEAETRECIYYNANWELERTNQSGLERCEGEQDKRLHCYASWRNSSGTIELVKKGCWEDDFNCYDRQECVATEENPQVYFCCCEGNFCNERFTHLPEAGGPEVTYEPPPTAPTGGGTHTCPPCPAPELLGGPSVFLFPPKPKDTLMISRTPEVTCVVVDVSHEDPEVKFNWYVDGVEVHNAKTKPREEQYNSTYRVVSVLTVLHQDWLNGKEYKCKVSNKALPVPIEKTISKAKGQPREPQVYTLPPSREEMTKNQVSLTCLVKGFYPSDIAVEWESNGQPENNYKTTPPVLDSDGSFFLYSKLTVDKSRWQQGNVFSCSVMHEALHNHYTQKSLSLSPGK	0.000274
ActRIIB(A24N 20-134)-hFc (Fc fusion, also called A24N variant; not shown: linker (if any) and human Fc (hFc)) GRGENETRECIYYNANWELERTNQSGLERCEGEQDKRLHCYASWRNSSGTIELVKKGCWLDDFNCYDRQECVATEENPQVYFCCCEGNFCNERFTHLPEAGGPEVTYEPPPTAPT	6.35e-05

# credit: patent US20160326228A1
